assay-info: LNP size, PDI and zeta potential by Dynamic Light Scattering (Method A)
Assay type: physicochemical
settings: LNP formulated with the lipid, DLS
recorded-metric: Size (nm)
Reply numerically in nm, unit not repeated.

CCCCC/C=C\C/C=C\CCCCCCCCOC(CCCCCCC/C=C\CCCCCCCC)O[Si](C)(C)OCCCCCCN(CCO)CCO (centres unmarked) ... 129.4
CCCCC/C=C\C/C=C\CCCCCCCCOC(CCCCCCC/C=C\C/C=C\CCCCC)O[Si](C)(C)OCCCCCCN(C)CCCCO (centres unmarked) ... 201.0
CCCCCCCC/C=C\CCCCCCCCOC(CCCCCCC/C=C\CCCCCCCC)O[Si](C)(C)OCCCCCCN(CCO)CCO (centres unmarked) ... 125.0
CCCCCCCCCCCOC(=O)CCCCCN(CCO)CCCCCCCC(=O)OC(CCCCCCCC)CCCCCCCC [SM-102, reference compound] ... 77.03
CCCCC/C=C\C/C=C\CCCCCCCCOC(CCCCCCCCCCCCCCC)O[Si](C)(C)OCCCCCCN(CCO)CCO (centres unmarked) ... 144.9

So what's the measured Size (nm) for this one? C#CCN(C)CCCCCCO[Si](C)(C)OC(CC(C)(C)C(=O)OCCCCCCCC/C=C\CCCCCCCC)OCCCCCCCC/C=C\CCCCCCCC (centres unmarked)
101.9

So what's the measured Size (nm) for this one? CCCCCCCC/C=C\CCCCCCCC(OCCC(C)CCCC(C)CCCC(C)CCCC(C)C)O[Si](C)(C)OCCCCCCN(CCO)CCO (centres unmarked)
76.35

So what's the measured Size (nm) for this one? CCCCC/C=C\C/C=C\CCCCCCCCO[Si](C)(C)OC(CCCCCCC/C=C\CCCCCCCC)OCCCN(C)C (centres unmarked)
104

* * *

Entries and their EE (%) values follow.
assay-info: Encapsulation efficiency of loaded LNPs, RiboGreen RNA assay (Method A)
Type: physicochemical
settings: encapsulation efficiency of mRNA-loaded LNP, Method A, RiboGreen
Protocol: The synthesized lipids were tested in term of in vitro transfection efficacy and toxicity on HeLa cells. In order to perform the mentioned biological tests, appropriate LNPs had to be formulated from the synthesized lipids. The formulation technique was different in Method A and B. The particle size, polydispersity index (PDI) and zeta potential of resulting LNPs were determined by means of Dynamic Light Scattering technique (DLS). […]
Reply numerically in %, unit not repeated.

See these solved cases before continuing.
CCCCC/C=C\C/C=C\CCCCCCCCOC(CCCCCN(C)CC(O)CO)O[Si](C)(C)OCCCCCCCC/C=C\C/C=C\CCCCC (stereo not drawn) [Example 66] ... 82
CCCCCCCC/C=C\CCCCCCCCOC(CCCCCCC/C=C\CCCCCCCC)O[Si](C)(C)OCCCCCCN(C)[C@H](CO)Cc1ccccc1 (stereo partly drawn) [Example 78] ... 87

So what's the measured EE (%) for this one? CCCCCCCC/C=C\CCCCCCCC(OCC(CCCCCC)CCCCCCCC)O[Si](C)(C)OCCCCCCN(CCO)CCO (stereo not drawn) [Example 50]
86

* * *

Tested on: HeLa cells
assay-info: Transfection efficiency with Luciferase (SecNLuc) mRNA, Nano-Glo assay (Method A)
Assay type: cell-based
settings: Luc mRNA, 10 ng mRNA/well, 24 h, luminescence
Tick 1 if Transfection 10 ng mRNA is 200000 or greater. Tick -1 if Transfection 10 ng mRNA is less than 200000.

CCCCCCCC/C=C\CCCCCCCCOC(CCCCCCCCCCCCCCC)O[Si](C)(C)OCCCCCCN(CCO)CCO (stereo not drawn) [Example 41] ... 1

hey, is Transfection 10 ng mRNA for this one >= 200000? CCCCCCCC/C=C\CCCCCCCCOC(CCCCCCC/C=C\CCCCCCCC)O[Si](C)(C)OCCCCCCN(CCO)CCO (stereo not drawn) [Example 47]
-1

hey, is Transfection 10 ng mRNA for this one >= 200000? CCCCC/C=C\C/C=C\CCCCCCCCOC(CCCCCCC/C=C\C/C=C\CCCCC)O[Si](C)(C)OCCCCCCN1CCCCC1CO (stereo not drawn) [Example 64]
1

hey, is Transfection 10 ng mRNA for this one >= 200000? CCCCC/C=C\C/C=C\CCCCCCCCOC(CCCCCCC/C=C\C/C=C\CCCCC)O[Si](C)(C)O[Si](C)(C)CCCCCCN(CCO)CCO (stereo not drawn) [Example 82]
-1

hey, is Transfection 10 ng mRNA for this one >= 200000? CCCCC/C=C\C/C=C\CCCCCCCC(OCCCCCCCC/C=C\CCCCCCCC)O[Si](C)(C)OCCCCCCN(CCO)CCO (stereo not drawn) [Example 45]
-1

hey, is Transfection 10 ng mRNA for this one >= 200000? CCCCC/C=C\C/C=C\CCCCCCCCOC(CCCCCCC/C=C\C/C=C\CCCCC)O[Si](C)(C)OCCCCCCN(C)CCO (stereo not drawn) [Example 56]
-1

* * *

Tested on: HepG2 cell line
assay-info: In vitro toxicity study on HepG2 cell line (resazurin, viability and IC50)
Type: cell-based, human
settings: HepG2 cells, 50 μM lipid, 48 h post-treatment, resazurin, relative to ethanol vehicle controls
recorded-metric: Viability (%) at different lipid concentrations, mean
Reply numerically in %, unit not repeated.

CCCCC/C=C\C/C=C\CCCCCCCCO[Si](C)(C)OC(CCCCCCC/C=C\C/C=C\CCCCC)OCCCCCCN(CCO)CCO (centres unmarked) ... 101.8

So what's the measured Viability (%) at different lipid concentrations, mean for this one? CCCCCCCC/C=C\CCCCCCCCOC(CCCCCCC/C=C\CCCCCCCC)O[Si](C)(C)OCCCCCCN(CCO)CCO (centres unmarked)
105.3

So what's the measured Viability (%) at different lipid concentrations, mean for this one? CCCCCCCC/C=C\CCCCCCCCOC(=O)C(C)(C)CC(OCCCCCCCC/C=C\CCCCCCCC)O[Si](C)(C)OCCCCCCN(CCCO)CCCO (centres unmarked)
99.6

So what's the measured Viability (%) at different lipid concentrations, mean for this one? CCCCCCCC/C=C\CCCCCCCC(OCC(CCCCCC)CCCCCCCC)O[Si](C)(C)OCCCCCCN(CCO)CCO (centres unmarked)
97.9

* * *

Test system: HepG2 cell line
assay-info: In vitro toxicity study on HepG2 cell line (resazurin, viability and IC50)
Assay type: cell-based, human
settings: HepG2 cells, 800 μM lipid, 48 h post-treatment, resazurin, relative to ethanol vehicle controls
Experimental: The synthesized lipids were tested in term of in vitro transfection efficacy and toxicity on HeLa cells. In order to perform the mentioned biological tests, appropriate LNPs had to be formulated from the synthesized lipids. The formulation technique was different in Method A and B. The particle size, polydispersity index (PDI) and zeta potential of resulting LNPs were determined by means of Dynamic Light Scattering technique (DLS). […]
Tick true (1) if Viability (%) at different lipid concentrations, mean is 40% or greater. Tick false (0) if Viability (%) at different lipid concentrations, mean is less than 40%.

// below: answered compounds
CCCCC/C=C\C/C=C\CCCCCCCCOC(CCCCCCC/C=C\CCCCCCCC)O[Si](C)(C)OCCCCCCN(CCO)CCO (stereo not shown) [Example 46] ... true (1)
CCCCC/C=C\C/C=C\CCCCCCCCOC(CCCCCCC/C=C\C/C=C\CCCCC)O[Si](C)(C)OCCCCCCN(C)[C@H](CO)Cc1ccccc1 (stereo partly shown) [Example 77] ... true (1)
CCCCC/C=C\C/C=C\CCCCCCCCOC(CCCCCCC/C=C\C/C=C\CCCCC)O[Si](C)(C)OCCCCCCN1CCCCC1 (stereo not shown) [Example 57] ... false (0)
CCCCCCCC/C=C\CCCCCCCC(OCCC(C)CCCC(C)CCCC(C)CCCC(C)C)O[Si](C)(C)OCCCCCCN(CCO)CCO (stereo not shown) [Example 75] ... true (1)
CCCCC/C=C\C/C=C\CCCCCCCCOC(CCCCCCC/C=C\C/C=C\CCCCC)O[Si](C)(C)OCCCCCCN(CCO)CCN(CCO)CCCCCCO[Si](C)(C)OC(CCCCCCC/C=C\C/C=C\CCCCC)OCCCCCCCC/C=C\C/C=C\CCCCC (stereo not shown) [Example 71] ... false (0)

hey, is Viability (%) at different lipid concentrations, mean for this one >= 40%? CCCCCCCC/C=C\CCCCCCCCOC(=O)C(C)(C)CC(OCCCCCCCC/C=C\CCCCCCCC)O[Si](C)(C)OCCCCCCN1CCCC1CO (stereo not shown) [Example 90]
true (1)

hey, is Viability (%) at different lipid concentrations, mean for this one >= 40%? CCCCC/C=C\C/C=C\CCCCCCCCOC(CCCCCCC/C=C\C/C=C\CCCCC)O[Si](C)(C)OCCCCCCN(C)CCO (stereo not shown) [Example 56]
false (0)

hey, is Viability (%) at different lipid concentrations, mean for this one >= 40%? CCCCCCCC/C=C\CCCCCCCCOC(=O)C(C)(C)CC(OCCCCCCCC/C=C\CCCCCCCC)O[Si](C)(C)OCCCCCCN1CCCCC1CO (stereo not shown) [Example 89]
true (1)

hey, is Viability (%) at different lipid concentrations, mean for this one >= 40%? CCCCCCCCC(CCCCCC)C(=O)OCCCCCCN(CCCCO)CCCCCCOC(=O)C(CCCCCC)CCCCCCCC (stereo not shown) [ALC-0315, reference compound]
false (0)

hey, is Viability (%) at different lipid concentrations, mean for this one >= 40%? CCCCC/C=C\C/C=C\CCCCCCCCOC(CCCCCN(C)CC(O)CO)O[Si](C)(C)OCCCCCCCC/C=C\C/C=C\CCCCC (stereo not shown) [Example 66]
true (1)
